The reported measurements were obtained from patent US6608086B2.

- ASSAY_TARGET: L-type calcium channel (Rattus norvegicus)
- Construct: membrane fragments of rat cardiac muscle; from tissue; host or cells: rat cardiac muscle membranes
- Sequence (P22002 whole entry, other chains not shown, the tested form may be a part): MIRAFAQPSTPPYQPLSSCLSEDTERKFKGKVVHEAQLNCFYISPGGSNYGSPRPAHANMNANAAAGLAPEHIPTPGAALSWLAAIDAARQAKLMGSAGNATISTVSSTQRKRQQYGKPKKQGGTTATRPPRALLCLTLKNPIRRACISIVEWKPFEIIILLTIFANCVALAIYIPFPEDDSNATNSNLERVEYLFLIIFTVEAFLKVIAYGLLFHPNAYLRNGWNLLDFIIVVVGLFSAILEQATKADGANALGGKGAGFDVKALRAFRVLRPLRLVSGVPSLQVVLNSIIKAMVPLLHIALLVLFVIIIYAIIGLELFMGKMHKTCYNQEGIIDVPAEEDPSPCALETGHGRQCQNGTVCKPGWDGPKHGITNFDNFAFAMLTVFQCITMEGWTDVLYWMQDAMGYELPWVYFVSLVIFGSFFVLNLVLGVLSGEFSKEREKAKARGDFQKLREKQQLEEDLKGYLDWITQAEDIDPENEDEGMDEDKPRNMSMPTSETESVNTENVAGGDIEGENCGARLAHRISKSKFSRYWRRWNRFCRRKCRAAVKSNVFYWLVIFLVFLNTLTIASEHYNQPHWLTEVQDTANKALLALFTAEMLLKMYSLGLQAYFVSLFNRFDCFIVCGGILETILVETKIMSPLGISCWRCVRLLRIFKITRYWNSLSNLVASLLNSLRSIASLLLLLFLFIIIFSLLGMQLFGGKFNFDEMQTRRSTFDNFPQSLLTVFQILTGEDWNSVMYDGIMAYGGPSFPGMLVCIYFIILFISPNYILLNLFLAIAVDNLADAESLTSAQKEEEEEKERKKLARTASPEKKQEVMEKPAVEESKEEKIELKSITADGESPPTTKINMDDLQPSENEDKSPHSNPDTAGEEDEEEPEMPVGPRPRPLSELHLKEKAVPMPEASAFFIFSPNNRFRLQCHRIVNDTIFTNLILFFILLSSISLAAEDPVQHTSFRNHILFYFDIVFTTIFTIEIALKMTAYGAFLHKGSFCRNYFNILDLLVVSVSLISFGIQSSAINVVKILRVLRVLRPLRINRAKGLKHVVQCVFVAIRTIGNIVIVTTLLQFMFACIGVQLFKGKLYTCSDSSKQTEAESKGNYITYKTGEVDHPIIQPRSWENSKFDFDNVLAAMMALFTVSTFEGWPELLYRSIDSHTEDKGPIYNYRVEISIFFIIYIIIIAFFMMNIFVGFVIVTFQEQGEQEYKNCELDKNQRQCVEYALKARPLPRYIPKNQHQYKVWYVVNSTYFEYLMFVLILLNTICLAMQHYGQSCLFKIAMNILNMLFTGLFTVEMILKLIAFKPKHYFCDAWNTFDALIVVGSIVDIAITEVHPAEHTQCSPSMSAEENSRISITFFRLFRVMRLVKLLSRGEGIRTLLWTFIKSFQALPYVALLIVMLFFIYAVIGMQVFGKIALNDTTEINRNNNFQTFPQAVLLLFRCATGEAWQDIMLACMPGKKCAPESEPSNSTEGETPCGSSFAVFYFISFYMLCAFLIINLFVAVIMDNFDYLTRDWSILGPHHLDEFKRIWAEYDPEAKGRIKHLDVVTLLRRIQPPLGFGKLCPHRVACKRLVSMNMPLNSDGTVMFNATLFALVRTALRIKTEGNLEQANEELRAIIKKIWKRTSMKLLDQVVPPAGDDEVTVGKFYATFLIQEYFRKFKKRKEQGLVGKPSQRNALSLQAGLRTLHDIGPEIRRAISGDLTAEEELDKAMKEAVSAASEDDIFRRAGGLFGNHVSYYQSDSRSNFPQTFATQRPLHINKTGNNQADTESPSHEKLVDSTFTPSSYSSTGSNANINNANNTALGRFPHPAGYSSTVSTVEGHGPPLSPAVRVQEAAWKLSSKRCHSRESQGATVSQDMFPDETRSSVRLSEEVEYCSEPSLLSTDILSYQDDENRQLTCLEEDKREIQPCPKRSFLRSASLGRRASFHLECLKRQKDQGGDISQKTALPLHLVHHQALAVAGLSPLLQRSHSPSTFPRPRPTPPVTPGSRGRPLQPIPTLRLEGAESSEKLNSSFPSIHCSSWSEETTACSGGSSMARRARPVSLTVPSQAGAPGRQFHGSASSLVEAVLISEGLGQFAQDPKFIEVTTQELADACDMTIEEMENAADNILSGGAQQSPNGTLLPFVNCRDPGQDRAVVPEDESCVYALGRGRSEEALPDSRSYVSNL
- Sequence (P54290 25-944 partner limits assumed, other chains not shown): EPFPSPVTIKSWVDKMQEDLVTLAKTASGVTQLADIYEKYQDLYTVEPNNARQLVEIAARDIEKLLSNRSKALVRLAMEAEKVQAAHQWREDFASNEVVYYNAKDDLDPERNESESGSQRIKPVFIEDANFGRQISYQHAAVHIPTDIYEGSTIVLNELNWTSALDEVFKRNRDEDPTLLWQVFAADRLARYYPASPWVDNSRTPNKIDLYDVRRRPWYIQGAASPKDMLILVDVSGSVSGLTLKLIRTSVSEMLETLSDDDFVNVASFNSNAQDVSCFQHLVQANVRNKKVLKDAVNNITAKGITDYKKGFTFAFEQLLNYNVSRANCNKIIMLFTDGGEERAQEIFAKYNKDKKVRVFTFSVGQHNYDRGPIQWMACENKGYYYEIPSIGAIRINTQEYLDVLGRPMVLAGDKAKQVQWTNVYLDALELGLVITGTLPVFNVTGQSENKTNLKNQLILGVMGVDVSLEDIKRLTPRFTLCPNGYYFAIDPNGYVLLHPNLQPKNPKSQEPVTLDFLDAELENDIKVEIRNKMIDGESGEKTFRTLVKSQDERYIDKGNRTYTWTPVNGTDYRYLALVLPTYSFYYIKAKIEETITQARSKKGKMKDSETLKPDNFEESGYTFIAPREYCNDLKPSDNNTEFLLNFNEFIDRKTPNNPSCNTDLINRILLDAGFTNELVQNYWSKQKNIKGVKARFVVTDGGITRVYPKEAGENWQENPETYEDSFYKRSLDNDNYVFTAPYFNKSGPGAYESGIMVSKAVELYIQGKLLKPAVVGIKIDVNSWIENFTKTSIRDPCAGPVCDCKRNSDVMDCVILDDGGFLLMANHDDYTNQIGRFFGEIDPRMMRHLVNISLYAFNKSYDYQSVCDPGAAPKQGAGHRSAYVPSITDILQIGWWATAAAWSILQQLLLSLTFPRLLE
- Sequence (P54290 945-1091 partner limits assumed, other chains not shown): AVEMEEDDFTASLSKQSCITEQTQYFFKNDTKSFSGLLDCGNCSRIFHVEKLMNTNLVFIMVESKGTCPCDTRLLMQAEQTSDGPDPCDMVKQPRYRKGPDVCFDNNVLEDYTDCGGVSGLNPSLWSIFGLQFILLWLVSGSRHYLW
- METHOD_NOTES: Competition binding of [3H]nitrendipine to membrane fragments of rat cardiac muscle
- DETAILS: [3H]nitrendipine, rat cardiac muscle membranes; SEM and n in lines below; read-out: pKi Ca (converted)
Counter-ions that a name gives are not always drawn.
EXPERIMENTAL_READOUT: Ki (µM)
Expressed in µM, but write only the number.

Qu. Consider the molecule CC1=C(C(N)=O)C(c2cccc([N+](=O)[O-])c2)C(C(=O)NCCCN2CCC(c3ccccc3)(c3ccccc3)CC2)=C(C)N1 (centres unmarked) . State its measured Ki.
Ans. 10.2

Qu. Consider the molecule COC(=O)C1=C(C)NC(C)=C(C(=O)NCCCN2CCC(c3ccccc3)CC2)C1c1ccc([N+](=O)[O-])cc1 (racemic) [(±)-45, hydrochloride hemihydrate] . State its measured Ki.
Ans. 7.41

Qu. Consider the molecule CC1=C(C(N)=O)C(c2ccc([N+](=O)[O-])cc2)C(C(=O)NCCCN2CCC(c3ccccc3)(c3ccccc3)CC2)=C(C)N1 (racemic) [(±)-2] . State its measured Ki.
Ans. 200

Qu. Consider the molecule CNC(=O)C1=C(C)NC(C)=C(C(=O)NCCCN2CCC(c3ccccc3)CC2)C1c1ccc([N+](=O)[O-])cc1 (centres unmarked) [Example 56, hydrochloride hemihydrate] . State its measured Ki.
Ans. 6.46

Qu. Consider the molecule COC(=O)C1=C(C)NC(C)=C(C(=O)NCCCN2CCC(c3ccccc3)CC2)C1c1ccc([N+](=O)[O-])cc1 (single isomer, unassigned; (-)) [(−)-45, hydrochloride hemihydrate] . State its measured Ki.
Ans. 4.37

Qu. Consider the molecule CCC1=C(C(=O)NCCCN2CCC(c3ccccc3)(c3ccccc3)CC2)C(c2ccc([N+](=O)[O-])cc2)C(C(=O)OCc2ccccc2)=C(C)N1 (centres unmarked) [Example 4, Hydrochloride Salt, Hydrate] . State its measured Ki.
Ans. 0.977

Qu. Consider the molecule CC1=C(C(=O)NCCCN2CCC(c3ccccc3)(c3ccccc3)CC2)C(c2ccc([N+](=O)[O-])cc2)C(C(=O)N(C)C)=C(C)N1 (centres unmarked) . State its measured Ki.
Ans. 44.7

Qu. Consider the molecule CC(=O)C1=C(C)NC(C)=C(C(=O)NCCCN2CCC(c3ccccc3)(c3ccccc3)CC2)C1c1ccc([N+](=O)[O-])cc1 (centres unmarked) . State its measured Ki.
Ans. 17.8

Qu. Consider the molecule CC1=C(C(N)=O)C(c2ccc([N+](=O)[O-])cc2)C(C(=O)NCCCN2CCC(c3ccccc3)(c3ccccc3)CC2)=C(C)N1 (single isomer, unassigned; (-)) [(−)-2] . State its measured Ki.
Ans. 1820

Qu. Consider the molecule COC(=O)C1=C(C)NC(C)=C(C(=O)NCCCN2CCC(c3ccccc3)(c3ccccc3)CC2)C1c1ccc([N+](=O)[O-])c(OC)c1 (centres unmarked) . State its measured Ki.
Ans. 13.8

Qu. Consider the molecule COC(=O)C1=C(C)NC(C)=C(C(=O)NCCCN2CCc3cc(OC)c(OC)cc3C2)C1c1ccc([N+](=O)[O-])cc1 (centres unmarked) [Example 57, hydrochloride hydrate] . State its measured Ki.
Ans. 1000
